Reference source for all entries: ChEMBL document CHEMBL1833964

Record form. Attribute: CC50 at 48 h. Fill in for each entry.
- Protocol notes: Cytotoxicity against african green monkey Vero cells infected with Enterovirus 71 assessed as growth inhibition after 48 hrs by Reed-Muench analysis
- Type: cell-based
- Condition notes: chlorocebus sabaeus, read-out: TC50
One number for each entry, in µM.

Before answering, review these 3 worked examples.
1. COc1cc2cc[n+](CCc3ccc(F)cc3)cc2cc1OC = 864
2. c1ccc(CC[n+]2ccc3ccc4c(c3c2)OCO4)cc1 = 820
3. Oc1ccc2cc[n+](CCc3ccccc3)cc2c1 = 534

Prompt: Any idea what its CC50 at 48 h is? The compound is Fc1ccc(CC[n+]2ccc3ccc4c(c3c2)OCO4)cc1
Completion: 420

###

Record form. Attribute: selectivity ratio. Fill in for each entry.
- Protocol notes: Selectivity index, ratio of TC50 for african green monkey vero cells to IC50 for Enterovirus 71
- Type: toxicity, cell-based
- Condition notes: read-out: Selectivity Index
One number for each entry.

Before answering, review these 3 worked examples.
1) COc1cc2cc[n+](CCc3ccc(F)cc3)cc2cc1OC = 8.1
2) Oc1ccc2cc[n+](CCc3ccccc3)cc2c1 = 3.5
3) c1ccc(CC[n+]2ccc3ccc4c(c3c2)OCO4)cc1 = 9

# ---- query compound ----
Prompt: Any idea what its selectivity ratio is? The compound is Fc1ccc(CC[n+]2ccc3ccc4c(c3c2)OCO4)cc1
Completion: 9.2

###

- Protocol notes: Selectivity index, ratio of TC50 for african green monkey vero cells to IC50 for Coxsackievirus B3
- Type: toxicity, cell-based
- Condition notes: read-out: Selectivity Index
Reported metric: selectivity ratio
Answers are plain numbers.

1) COc1ccc2cc[n+](CCc3ccccc3)cc2c1OC = 2.8
2) c1ccc(CC[n+]2ccc3ccc4c(c3c2)OCO4)cc1 = 26.8
3) COc1cc2c[n+](CCc3ccccc3C)ccc2cc1O = 2.1
4) COc1ccc2cc[n+](CCc3ccccc3)cc2c1O = 3.9
5) Oc1ccc2cc[n+](CCc3ccccc3)cc2c1 = 15.6

# ---- query compound ----
Prompt: Any idea what its selectivity ratio is? The compound is Cc1ccccc1CC[n+]1ccc2ccc(O)cc2c1
Completion: 2.1

###

- Protocol notes: Cytotoxicity against african green monkey Vero cells infected with Coxsackievirus B3 assessed as growth inhibition after 48 hrs by Reed-Muench analysis
- Format: cell-based
- Condition notes: chlorocebus sabaeus, read-out: TC50
Reported metric: log10(CC50 at 48 h) (log10 of the value in µM)
Remember, log10 of CC50 at 48 h, in µM.

Before answering, review these 5 worked examples.
1) COc1cc2c[n+](CCc3ccccc3F)ccc2cc1O = 2.52
2) COc1cc2c[n+](CCc3ccccc3C)ccc2cc1O = 2.37
3) Fc1ccc(CC[n+]2ccc3ccc4c(c3c2)OCO4)cc1 = 2.76
4) Cc1ccccc1CC[n+]1ccc2ccc(O)cc2c1 = 2.89
5) COc1ccc2cc[n+](CCc3ccc(F)cc3)cc2c1OC = 3.14

Hey, can you go through the list below and give me log10(CC50 at 48 h) for every item?
1. COc1ccc(CC[n+]2ccc3ccc(OC)c(OC)c3c2)cc1
2. COc1cc2cc[n+](CCc3cccc(Cl)c3)cc2cc1OC
3. COc1ccccc1CC[n+]1ccc2ccc(O)cc2c1

Completion:
1.69
2.12
3.03

Hey, can you go through the list below and give me log10(CC50 at 48 h) for every item?
1. COc1ccc2cc[n+](CCc3ccccc3)cc2c1O
2. COc1cc2cc[n+](CCc3ccccc3F)cc2cc1OC

Completion:
2.55
2.31
